Just for reference, paper PMC5942844 is where these values come from.

Target: human taurine transporter (HsTauT) (Homo sapiens)
Test: [3H]taurine uptake by HEK293 cells stably expressing the human taurine transporter
Conditions: IC50 of unlabeled taurine for [3H]taurine uptake, absence of GES
RECORDED METRIC: IC50

record_smiles=NCCS(=O)(=O)O measurement="41.2 µM"

====

Target: UniProt:A0A2R4LGM2
Sequence (A0A2R4LGM2 1-647): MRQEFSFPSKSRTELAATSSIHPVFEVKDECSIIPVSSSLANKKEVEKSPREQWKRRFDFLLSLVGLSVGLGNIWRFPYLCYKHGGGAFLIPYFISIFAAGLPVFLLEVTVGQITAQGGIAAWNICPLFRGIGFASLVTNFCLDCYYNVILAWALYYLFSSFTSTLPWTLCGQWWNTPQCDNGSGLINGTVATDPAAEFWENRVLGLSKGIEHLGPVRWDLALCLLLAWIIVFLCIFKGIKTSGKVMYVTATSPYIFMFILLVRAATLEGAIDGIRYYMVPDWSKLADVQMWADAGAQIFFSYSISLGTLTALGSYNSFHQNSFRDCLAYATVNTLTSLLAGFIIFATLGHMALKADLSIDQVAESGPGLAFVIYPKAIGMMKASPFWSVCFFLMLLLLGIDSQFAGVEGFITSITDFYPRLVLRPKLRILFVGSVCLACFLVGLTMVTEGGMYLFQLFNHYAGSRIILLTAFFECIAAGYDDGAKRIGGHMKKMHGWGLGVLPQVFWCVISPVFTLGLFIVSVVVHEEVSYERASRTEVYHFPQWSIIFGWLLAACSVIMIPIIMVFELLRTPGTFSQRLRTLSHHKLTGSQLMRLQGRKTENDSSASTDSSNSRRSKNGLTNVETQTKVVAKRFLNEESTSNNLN
Assay: cell-based
Details: read-out: IC50 for inhibition of [3H]taurine uptake; 0.1 μM [3H]taurine, 10 min
pIC50: −log10 of the molar value.
RECORDED METRIC: pIC50

record_smiles=NCCCC(=O)O target_or_system=UniProt:A0A2R4LGM2 measurement=2.25

====

Biological target: human taurine transporter (HsTauT) (Homo sapiens)
Experiment: [3H]taurine uptake by HEK293 cells stably expressing the human taurine transporter
Settings: read-out: IC50 for inhibition of [3H]taurine uptake; 0.1 μM [3H]taurine, 10 min
pIC50: −log10 of the molar value.
RECORDED METRIC: pIC50

molecule="NCCCC(=O)O [GABA]" target_or_system="human taurine transporter (HsTauT) (Homo sapiens)" measurement=2.80

====

Biological target: human taurine transporter (HsTauT) (Homo sapiens, UniProt P31641)
Sequence (P31641 1-620): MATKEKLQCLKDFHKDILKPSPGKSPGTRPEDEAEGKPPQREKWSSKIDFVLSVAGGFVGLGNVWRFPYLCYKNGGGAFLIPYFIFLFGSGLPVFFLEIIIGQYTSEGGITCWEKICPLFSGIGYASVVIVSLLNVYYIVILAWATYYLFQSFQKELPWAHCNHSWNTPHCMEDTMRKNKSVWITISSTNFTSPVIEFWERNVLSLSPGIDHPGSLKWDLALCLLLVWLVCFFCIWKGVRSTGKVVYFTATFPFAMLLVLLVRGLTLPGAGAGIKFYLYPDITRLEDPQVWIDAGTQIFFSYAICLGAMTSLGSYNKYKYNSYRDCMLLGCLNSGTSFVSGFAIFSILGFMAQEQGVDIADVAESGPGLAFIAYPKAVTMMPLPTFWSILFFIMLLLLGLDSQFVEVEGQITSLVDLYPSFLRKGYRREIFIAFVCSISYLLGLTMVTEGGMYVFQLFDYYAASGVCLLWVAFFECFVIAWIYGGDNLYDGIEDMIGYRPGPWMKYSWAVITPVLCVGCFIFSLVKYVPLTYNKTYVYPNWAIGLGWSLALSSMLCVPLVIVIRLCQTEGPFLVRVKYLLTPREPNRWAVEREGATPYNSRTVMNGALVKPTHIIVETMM
Assay: [3H]taurine uptake by HEK293 cells stably expressing the human taurine transporter
Details: IC50 of unlabeled taurine for [3H]taurine uptake, presence of 0.3 mM GES
Description: Human embryonic kidney-293 (HEK293 (ATCC CRL-1573, LGC standards Wesel, Germany)) cells, were grown in Dulbecco`s modified Eagle medium (DMEM) supplemented with 10% fetal bovine serum (FCS Nuaille, France), 100 units/ml penicillin and 100 μg/ml streptomycin at 37°C and with 5% CO2 in a humidified incubator. […] Surviving cells forming colonies were separated and analyzed for membrane localization of transporters and transport of taurine. […]
RECORDED METRIC: IC50 (µM)

record_smiles=NCCS(=O)(=O)O measurement=98.9

====

Target: UniProt:A0A2R4LGM2
Sequence (A0A2R4LGM2 1-647): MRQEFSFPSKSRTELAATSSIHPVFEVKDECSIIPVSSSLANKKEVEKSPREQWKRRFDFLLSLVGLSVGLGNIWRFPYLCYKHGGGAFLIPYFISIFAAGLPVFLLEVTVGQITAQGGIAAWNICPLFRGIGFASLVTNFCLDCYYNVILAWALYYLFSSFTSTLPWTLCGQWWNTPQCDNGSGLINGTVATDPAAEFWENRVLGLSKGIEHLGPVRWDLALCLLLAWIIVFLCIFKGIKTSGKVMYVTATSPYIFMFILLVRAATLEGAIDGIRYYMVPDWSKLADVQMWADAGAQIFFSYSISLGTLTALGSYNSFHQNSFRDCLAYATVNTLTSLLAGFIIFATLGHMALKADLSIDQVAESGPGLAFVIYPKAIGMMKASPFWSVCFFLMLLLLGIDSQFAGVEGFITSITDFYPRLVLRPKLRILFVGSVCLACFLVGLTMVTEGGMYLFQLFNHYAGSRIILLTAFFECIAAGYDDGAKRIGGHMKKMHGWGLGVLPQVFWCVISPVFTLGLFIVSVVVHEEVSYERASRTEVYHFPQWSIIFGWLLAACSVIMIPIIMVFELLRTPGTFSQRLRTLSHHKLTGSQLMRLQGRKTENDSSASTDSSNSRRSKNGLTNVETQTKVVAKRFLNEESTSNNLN
Test: cell-based
RECORDED METRIC: IC50 (µM)

record_smiles=NCCC(=O)O target_or_system=UniProt:A0A2R4LGM2 recorded_metric=IC50 measurement=713

====

Biological target: F. hepatica taurine transporter (FhTauT) (Fasciola hepatica)
Assay: cell-based
Conditions: read-out: EC50 of chloride for substrate uptake (apparent affinity); chloride replaced with acetate, 0.1 μM [3H]taurine
RECORDED METRIC: EC50 (mM)

compound="Cl [chloride]" measurement=13.9

====

Biological target: F. hepatica taurine transporter (FhTauT) (Fasciola hepatica, UniProt A0A2R4LGM2)
Test: cell-based
Conditions: IC50 of unlabeled taurine for [3H]taurine uptake, presence of 1 mM GES
Experimental: Human embryonic kidney-293 (HEK293 (ATCC CRL-1573, LGC standards Wesel, Germany)) cells, were grown in Dulbecco`s modified Eagle medium (DMEM) supplemented with 10% fetal bovine serum (FCS Nuaille, France), 100 units/ml penicillin and 100 μg/ml streptomycin at 37°C and with 5% CO2 in a humidified incubator. […] Surviving cells forming colonies were separated and analyzed for membrane localization of transporters and transport of taurine. […]
RECORDED METRIC: IC50 (µM)

record_smiles=NCCS(=O)(=O)O recorded_metric=IC50 measurement=18.7

====

Target: human taurine transporter (HsTauT) (Homo sapiens, UniProt P31641)
Experiment: [3H]taurine uptake by HEK293 cells stably expressing the human taurine transporter
Conditions: read-out: EC50 of chloride for substrate uptake (apparent affinity); chloride replaced with acetate, 0.1 μM [3H]taurine
RECORDED METRIC: EC50 (mM)

molecule="Cl [chloride]" unit_spec=mM measurement=54.8

====

Target: human taurine transporter (HsTauT) (Homo sapiens, UniProt P31641)
Assay: [3H]taurine uptake by HEK293 cells stably expressing the human taurine transporter
Details: read-out: EC50 of chloride for substrate uptake (apparent affinity); chloride replaced with acetate, 0.1 μM [3H]taurine; listed as Cl^-
RECORDED METRIC: EC50 (mM)

molecule="Cl [chloride]" recorded_metric=EC50 unit_spec=mM measurement=55

====

Target: human taurine transporter (HsTauT) (Homo sapiens)
Assay: [3H]taurine uptake by HEK293 cells stably expressing the human taurine transporter
Settings: read-out: EC50 of Na+ for half-maximum stimulation of transport; sodium replaced with choline, 0.1 μM [3H]taurine
Method: Human embryonic kidney-293 (HEK293 (ATCC CRL-1573, LGC standards Wesel, Germany)) cells, were grown in Dulbecco`s modified Eagle medium (DMEM) supplemented with 10% fetal bovine serum (FCS Nuaille, France), 100 units/ml penicillin and 100 μg/ml streptomycin at 37°C and with 5% CO2 in a humidified incubator. […] Surviving cells forming colonies were separated and analyzed for membrane localization of transporters and transport of taurine. […]
RECORDED METRIC: EC50 (mM)

record_smiles=[Na+] recorded_metric=EC50 unit_spec=mM measurement=56.5
